- System: 769-P
- MEASUREMENT_NOTES: cells
- Type: functional, cell-based, Homo sapiens
- CONDITION_DESCRIPTION: Homo sapiens, 769-P
- Description: SANGER: Inhibition of human 769-P cell growth in a cell viability assay.
REPORTED_METRIC: IC50 (µM)
Reply numerically in µM, unit not repeated.

SMILES_ENTRY | MEASURE_UNIT | TEST_VALUE
CC(C)c1ccccc1Cc1cc(C(=O)Nc2ccc(S(=O)(=O)c3ccccc3C(C)(C)C)cc2)c(O)c(O)c1O | µM | 0.137
O=C(O)c1ccc(-c2c[nH]c3ncc(-c4ccccc4)cc23)cc1C1CCCC1 | µM | 4.89
CN(C)C(=N)NC(=N)N | µM | 6920
COc1cccc2c1C(=O)c1c(O)c3c(c(O)c1C2=O)C[C@@](O)(C(=O)CO)C[C@@H]3O[C@H]1C[C@H](N)[C@H](O)[C@H](C)O1 | µM | 0.0208

Prompt line: Give IC50 for Cc1cc([N+](=O)[O-])ccc1NS(=O)(=O)c1cc(Cl)ccc1Cl
Response line: 6.73
